settings: 25.0 °C
measured-quantity: log10 OH rate constant (cm³/molecule/s)
Just the number, please, no unit attached.

Briefly, log10 OH rate constant (cm³/molecule/s) measured for `Clc1ccc(-c2c(Cl)ccc(Cl)c2Cl)cc1Cl` : -12.2

Briefly, log10 OH rate constant (cm³/molecule/s) measured for `Clc1ccc(Cl)c(-c2c(Cl)ccc(Cl)c2Cl)c1` : -12.4

Briefly, log10 OH rate constant (cm³/molecule/s) measured for `Clc1ccc(-c2ccc(Cl)cc2Cl)c(Cl)c1` : -12

Briefly, log10 OH rate constant (cm³/molecule/s) measured for `Clc1ccc(-c2ccccc2Cl)cc1Cl` : -12

Briefly, log10 OH rate constant (cm³/molecule/s) measured for `Clc1ccc(-c2ccccc2)c(Cl)c1` : -11.6

Briefly, log10 OH rate constant (cm³/molecule/s) measured for `Clc1c(Cl)c(Cl)c(-c2ccccc2)c(Cl)c1Cl` : -12

Briefly, log10 OH rate constant (cm³/molecule/s) measured for `Clc1ccc(-c2ccc(Cl)cc2Cl)cc1` : -12

Briefly, log10 OH rate constant (cm³/molecule/s) measured for `Clc1ccc(Cl)c(-c2cccc(Cl)c2Cl)c1` : -12.1

Briefly, log10 OH rate constant (cm³/molecule/s) measured for `Clc1ccc(-c2cc(Cl)ccc2Cl)cc1` : -11.9

Briefly, log10 OH rate constant (cm³/molecule/s) measured for `Clc1cc(Cl)c(-c2ccccc2)cc1Cl` : -11.9
